system: MDA-N; experiment: NCI tumour cell line growth inhibition, 48 h
Activity calls are given as the source filed them. Rule as the data show it: active = GI50 up to about 1.1 µM and inactive = higher.
Below, each entry is listed alongside its reported GI50.

I have this compound here, COC(=O)C1(Cc2ccccc2)Cc2cc3c(cc2C1=O)CCC3 (centres undefined) , and I need its recorded GI50.
15 µM (inactive)

I have this compound here, Clc1ccc(-c2cc(-c3nc4ccccc4[nH]3)no2)cc1 , and I need its recorded GI50.
17.5 µM (inactive)

I have this compound here, C=CC[C@@]1([C@H](C=C)COCc2ccc(OC)cc2)CC[C@]2(C)OC(C)(C)[C@@H](c3ccccc3)N2C1=S , and I need its recorded GI50.
49.5 µM (inactive)

# evaluate next
I have this compound here, O=C1OCC2OC(=O)c3cc(O)c(O)c(O)c3-c3c(O)c(O)c(O)c4c3C(=O)OC(C2OC(=O)c2cc(O)c(O)c(O)c2-c2c1cc(O)c(O)c2O)C1OC(=O)c2c-4c(O)c(O)c(O)c2[C@@H]1C(O)C(O)C(O)C(O)CO (some centres undefined) , and I need its recorded GI50.
7.11 µM (inactive)
